Test: Pharmacokinetic studies in mice
Format: in vivo, mouse
Conditions: mice, iv, 15 mg/kg; 24 h experiments (31: 8 h experiment)
Listing of recorded Clobs by entry.
Give a bare numeral; the unit mL/min/kg is implied.

For record N#Cc1cc2cc(CN3CCC(Nc4ncnc5sc(CC(F)(F)F)cc45)CC3)c(O)cc2n1Cc1cn[nH]c1 the listed Clobs is 14.0

For record N#Cc1cc2cc(CN3CCC(Nc4ncnc5sc(CC(F)(F)F)cc45)CC3)ccc2[nH]1 the listed Clobs is 38.1

For record COc1cc2c(cc(C#N)n2Cc2cn[nH]c2)c(C)c1CN1CCC(Nc2ncnc3sc(CC(F)(F)F)cc23)CC1 the listed Clobs is 15.0

For record Cc1c(CN2CCC(Nc3ncnc4sc(CC(F)(F)F)cc34)CC2)c(O)cc2[nH]c(C#N)cc12 the listed Clobs is 44.1

Turning to the following compound.
For record COc1cc2[nH]c(C#N)cc2c(C)c1CN1CCC(Nc2ncnc3sc(CC(F)(F)F)cc23)CC1 the listed Clobs is 26.6
